- Tested on: myeloid leukemia patient primary cells Pat.6
- Run description: cell viability (% survival relative to DMSO control); higher = less cytotoxic
- Condition info: 1 nM; 72 h
Endpoint: cell viability (%)
I only need the number, in %, no unit after it.

Solved cases below.
Cc1nnc(-c2ccc(N3CCC(Oc4ccccc4C(F)(F)F)CC3)nn2)s1 [MF-438]    95.4
CN(C)CCNC(=O)c1cccn2c(=O)c3cc4ccccc4cc3nc12 [Bmh-21]    96.4

# cell viability of O=C(/C=C/c1cccnc1)NCCCCC1CCN(C(=O)c2ccccc2)CC1 [Daporinad] = 60.3

# cell viability of `O=C(c1c2ccccc2cc2ccccc12)N1CCC(N2CCC[C@@H](C(=O)N3CCOCC3)C2)CC1` = 99.8

---

- System: NOMO-1
- Run description: cell viability (% survival relative to DMSO control, bortezomib = 0%); higher = less cytotoxic
- Condition info: 100 nM; 72 h
Where a name gives a salt, the structure may show the parent alone.
Measured cell viability by item
I only need the number, in %, no unit after it.

Solved cases below.
CN1CC(=O)N2[C@H](c3ccc4c(c3)OCO4)c3[nH]c4ccccc4c3C[C@@H]2C1=O    96.6
N=C(N)c1ccc(N=NNc2ccc(C(=N)N)cc2)cc1    104
O=c1oc2c(cc1O)oc(=O)c1cc(O)c(O)c(O)c12    99.1
N#Cc1ccc(C2CCCc3cncn32)cc1 (configuration not stated)    93.4
O=C(/C=C/c1cccnc1)NCCCCC1CCN(C(=O)c2ccccc2)CC1    0.217
OC[C@H]1OC(O)C[C@@H](O)[C@@H]1O (some centres not stated)    107
Cl.NC1=CCCN1Cc1nc(O)nc(O)c1Cl    100
Cn1cc(C[C@@H](N)C(=O)O)c2ccccc21    95.6
CNC(=C[N+](=O)[O-])NCCSCc1ccc(CN(C)C)o1    108
COc1cc(C2Oc3cc(C4Oc5cc(O)cc(O)c5C(=O)C4O)ccc3OC2CO)ccc1O (configuration not stated)    99.8

# cell viability of C[C@H]1O[C@H](O[C@H]2[C@H](O)[C@@H](O)[C@@H](O[C@H]3[C@H](O)[C@@H](O)C(O)O[C@@H]3CO)O[C@@H]2CO)[C@H](O)[C@@H](O)[C@@H]1N[C@H]1C=C(CO)[C@@H](O)[C@H](O)[C@H]1O (mixture of isomers) = 103

# cell viability of CC(C)(Cc1ccccc1)NCC(O)c1ccc(O)c(NS(C)(=O)=O)c1 (configuration not stated) [Zinterol hydrochloride] = 101

---

Measured cell viability by item
- Tested on: myeloid leukemia patient primary cells Pat.2
- Run description: cell viability (% survival relative to DMSO control); higher = less cytotoxic
- Condition info: 100 nM; 72 h
I only need the number, in %, no unit after it.

Solved cases below.
O=C(/C=C/c1cccnc1)NCCCCC1CCN(C(=O)c2ccccc2)CC1 [Daporinad]    11.7
c1ccc2c(c1)SCc1c-2[nH]c2ccccc12    97.2
O=C(c1c2ccccc2cc2ccccc12)N1CCC(N2CCC[C@@H](C(=O)N3CCOCC3)C2)CC1    98

Here is another compound to look at.
# cell viability of Clc1cc(Cl)c(OCC#CI)cc1Cl [Haloprogin] = 92.1

---

- System: MV4-11
- Run description: cell viability (% survival relative to DMSO control, bortezomib = 0%); higher = less cytotoxic
- Condition info: 10000 nM; 72 h
Endpoint: cell viability (%)
I only need the number, in %, no unit after it.

CN(C)C(=O)n1nnnc1Cc1ccc(-c2ccccc2)cc1    0.0147
CC(C)(F)C[C@H](N[C@@H](c1ccc(-c2ccc(S(C)(=O)=O)cc2)cc1)C(F)(F)F)C(=O)NC1(C#N)CC1    112
CC(C)(CS(=O)(=O)[O-])NC(=O)CC[N+](C)(C)CCO    114
C[C@H]1O[C@H](O[C@H]2[C@H](O)[C@@H](O)[C@@H](O[C@H]3[C@H](O)[C@@H](O)C(O)O[C@@H]3CO)O[C@@H]2CO)[C@H](O)[C@@H](O)[C@@H]1N[C@H]1C=C(CO)[C@@H](O)[C@H](O)[C@H]1O (mixture of isomers)    94.9
COc1cc(/C=C/c2ccc(OC)cc2OC)cc(OC)c1    86
COc1ccc2c(c1)c(CC(=O)O)c(C)n2C(=O)c1ccc(Cl)cc1    92.2
CN(C)CCNC(=O)c1cccn2c(=O)c3cc4ccccc4cc3nc12    11.1
Cl.NC1=CCCN1Cc1nc(O)nc(O)c1Cl    106
Cc1[nH]n(-c2ccccc2)c(=O)c1C1(C(F)(F)F)C(=O)N(c2ccccc2)C2=C1C(=O)CC(C)(C)C2 (centres undefined)    96.4
NS(=O)(=O)c1ccc(S(=O)(=O)Nc2cccc3c(Cl)c[nH]c23)cc1    0.0378

I looked up `O[C@H]1[C@H](O)[C@@H](O)CN2CC[C@H](O)[C@H]12` and its cell viability for MV4-11 was 107

I looked up `O=C1N[C@@H]2[C@@H](O)[C@@H](O)[C@H](O)[C@@H](CO)N2C1=O` and its cell viability for MV4-11 was 72.1

I looked up `Nc1ccn([C@@H]2O[C@H](CO)[C@@H](O)C2(F)F)c(=O)n1` and its cell viability for MV4-11 was 0.268

I looked up `Cl.OC[C@H]1NC[C@H](O)[C@@H](O)[C@H]1O` and its cell viability for MV4-11 was 97.2

---

- System: myeloid leukemia patient primary cells Pat.15
- Run description: area under dose-response curve (viability, 1 nM-10 uM) (fraction (0-1)); higher = more sensitive
- Condition info: 72 h
Structures can show the parent of a compound that is named as a salt.
Lab note: compare area under dose-response curve against 0.1. Equal or greater, write Satisfied. Smaller, write Not satisfied.

Worked cases, answers included:
CCCCCCCCCCCCC/C=C/[C@@H](O)[C@H](CO)N(C)C    Satisfied
NS(=O)(=O)c1ccc(S(=O)(=O)Nc2cccc3c(Cl)c[nH]c23)cc1    Not satisfied
Fc1ccc(CNc2ncnc3ccc(F)cc23)cc1    Satisfied
O=c1[nH]c(=O)n([C@H]2C[C@H](O)[C@@H](CO)O2)cc1I    Not satisfied
CC(C)(Cc1ccccc1)NCC(O)c1ccc(O)c(NS(C)(=O)=O)c1 (centres undefined) [Zinterol hydrochloride]    Not satisfied

Turning to the following molecule.
Can `CN(C)CCNC(=O)c1cccn2c(=O)c3cc4ccccc4cc3nc12` be said to have area under dose-response curve at or above 0.1?
Satisfied

---

- Tested on: myeloid leukemia patient primary cells Pat.2
- Run description: cell viability (% survival relative to DMSO control); higher = less cytotoxic
- Condition info: 1 nM; 72 h
Endpoint: cell viability

I looked up Nc1ccn([C@@H]2O[C@H](CO)[C@@H](O)C2(F)F)c(=O)n1 [Gemcitabine] and its cell viability for myeloid leukemia patient primary cells Pat.2 was 90.2%

I looked up O=C(CCl)N(CCCNC(=O)C(F)(F)F)c1ccc([N+](=O)[O-])cc1 [ML-175] and its cell viability for myeloid leukemia patient primary cells Pat.2 was 94.8%

I looked up O=C(Cc1cccc(OC(F)(F)F)c1)Nc1ccc(CCCCc2nnc(NC(=O)Cc3ccccn3)s2)nn1 [CB-839] and its cell viability for myeloid leukemia patient primary cells Pat.2 was 86.8%

I looked up O=C(Oc1cccc(F)c1OC(=O)c1cccc(O)c1)c1cccc(O)c1 [WZB117] and its cell viability for myeloid leukemia patient primary cells Pat.2 was 99.7%

---

- System: myeloid leukemia patient primary cells Pat.3
- Run description: cell viability (% survival relative to DMSO control); higher = less cytotoxic
- Condition info: 10 nM; 72 h
Measured cell viability by item
I only need the number, in %, no unit after it.

O=C(/C=C/c1cccnc1)NCCCCC1CCN(C(=O)c2ccccc2)CC1    2.72
O=C(CCl)N(CCCNC(=O)C(F)(F)F)c1ccc([N+](=O)[O-])cc1    96.2

I looked up `c1ccc2c(c1)SCc1c-2[nH]c2ccccc12` and its cell viability for myeloid leukemia patient primary cells Pat.3 was 76.1

I looked up `CC(C)c1onc(-c2c(Cl)cccc2Cl)c1COc1ccc(/C=C/c2cccc(C(=O)O)c2)c(Cl)c1` and its cell viability for myeloid leukemia patient primary cells Pat.3 was 78.7

I looked up `O=C(Oc1cccc(F)c1OC(=O)c1cccc(O)c1)c1cccc(O)c1` and its cell viability for myeloid leukemia patient primary cells Pat.3 was 71.3

I looked up `CCCCCCCCCCCCC/C=C/[C@@H](O)[C@H](CO)N(C)C` and its cell viability for myeloid leukemia patient primary cells Pat.3 was 87.2

---

- Test system: myeloid leukemia patient primary cells Pat.12
- Run description: cell viability (% survival relative to DMSO control); higher = less cytotoxic
- Condition info: 1 nM; 72 h
Measured cell viability by item
I only need the number, in %, no unit after it.

Solved cases below.
CN(C)CCNC(=O)c1cccn2c(=O)c3cc4ccccc4cc3nc12    94.1
O=C(CCl)N(CCCNC(=O)C(F)(F)F)c1ccc([N+](=O)[O-])cc1    96.2

Here is another compound to look at.
# cell viability of `O=c1[nH]c(=O)n([C@H]2C[C@H](O)[C@@H](CO)O2)cc1I` = 95.6
